Species on record: Rattus norvegicus
Assay: Open TG-GATES - Regimen: Single
Type: toxicity, organism-based, Sprague-Dawley
Design: regimen Single, gender Male, age 6 weeks
Details: in vivo, po, 0 mg/kg, 6 h, tissue Plasma, route gavage, dose level Control
measurementKind: K (meq/L)
Field format: number, assumed meq/L, no unit text.

The compound CN(C/C=C/C#CC(C)(C)C)Cc1cccc2ccccc12 [TERBINAFINE] showed K equal to 3.8

The compound CCO [ALCOHOL] showed K equal to 4.8

The compound O=c1ccc2ccccc2o1 [COUMARIN] showed K equal to 5.4

The compound C=C[C@H]1C[N@@]2CC[C@H]1C[C@@H]2[C@@H](O)c1ccnc2ccc(OC)cc12 [QUINIDINE] showed K equal to 4.2

The compound COc1ccc([C@@H]2Sc3ccccc3N(CCN(C)C)C(=O)[C@@H]2OC(C)=O)cc1 [DILTIAZEM] showed K equal to 4.1

The compound CN(CCOc1ccc(CC2SC(=O)NC2=O)cc1)c1ccccn1.O=C(O)/C=C\C(=O)O (stereo not given) [ROSIGLITAZONE MALEATE] showed K equal to 4.4

The compound CC(S)C(=O)NCC(=O)O (stereo not given) [TIOPRONIN] showed K equal to 4.4

The compound O=C(O)c1ccccc1Nc1ccccc1 [FENAMIC ACID] showed K equal to 4.1

The compound COc1cc2ncnc(Nc3ccc(F)c(Cl)c3)c2cc1OCCCN1CCOCC1 [GEFITINIB] showed K equal to 4.2

The compound NS(=O)(=O)c1cc(C(=O)O)c(NCc2ccco2)cc1Cl [FUROSEMIDE] showed K equal to 3.9

The compound `Nc1ccc(Cc2ccc(N)cc2)cc1` showed K equal to 4.2

The compound CN(C)CCCN1c2ccccc2Sc2ccc(Cl)cc21 [CHLORPROMAZINE] showed K equal to 3.9

The compound `CCN(CC)C(=S)SSC(=S)N(CC)CC` showed K equal to 4.4

The compound CC(=O)[C@@]1(O)CC[C@H]2[C@@H]3C=C(Cl)C4=CC(=O)CC[C@]4(C)[C@H]3CC[C@@]21C [CHLORMADINONE] showed K equal to 4.4

The compound CCCCNC(=O)NS(=O)(=O)c1ccc(C)cc1 [TOLBUTAMIDE] showed K equal to 4.1

---

Organism: Rattus norvegicus
Assay: Open TG-GATES - Regimen: Daily Repeat
Assay type: toxicity, organism-based, Sprague-Dawley
Design: regimen Daily Repeat, gender Male, age 6 weeks
Conditions: in vivo, po, 1000 mg/kg, 72 h, tissue Blood, route gavage, dose level High, time 3 day
What Fbg was measured for each of the following?
Please format your answer as a value with the unit trailing.

The compound CCCCNC(=O)NS(=O)(=O)c1ccc(C)cc1 [TOLBUTAMIDE] showed Fbg equal to 301.6 mg/dL

The compound `O=C(O)c1ccccc1Nc1ccccc1` showed Fbg equal to 440 mg/dL

The compound CC(S)C(=O)NCC(=O)O (centres undefined) showed Fbg equal to 288 mg/dL

The compound `CC(=O)[C@@]1(O)CC[C@H]2[C@@H]3C=C(Cl)C4=CC(=O)CC[C@]4(C)[C@H]3CC[C@@]21C` showed Fbg equal to 321.4 mg/dL

---

Organism: Rattus norvegicus
Experiment: Open TG-GATES - Regimen: Daily Repeat
Type: toxicity, organism-based, Sprague-Dawley
Design: regimen Daily Repeat, gender Male, age 6 weeks
Details: in vivo, po, 0 mg/kg, […], tissue Plasma, route gavage, dose level Control, time 14 day
// class assignment uses DBIL with these ranges: low = under 0.01 mg/dL, middle = from 0.01 mg/dL up to 0.02 mg/dL, high = 0.02 mg/dL and over

Where would `CCN(CC)C(=S)SSC(=S)N(CC)CC` land among the classes by reported DBIL?
low

Where would CC(=O)[C@@]1(O)CC[C@H]2[C@@H]3C=C(Cl)C4=CC(=O)CC[C@]4(C)[C@H]3CC[C@@]21C [CHLORMADINONE] land among the classes by reported DBIL?
low

Where would CC(S)C(=O)NCC(=O)O (stereo not drawn) [TIOPRONIN] land among the classes by reported DBIL?
low

Where would CCO [ALCOHOL] land among the classes by reported DBIL?
high

Where would COc1ccc([C@@H]2Sc3ccccc3N(CCN(C)C)C(=O)[C@@H]2OC(C)=O)cc1 [DILTIAZEM] land among the classes by reported DBIL?
middle

Where would CCCCNC(=O)NS(=O)(=O)c1ccc(C)cc1 [TOLBUTAMIDE] land among the classes by reported DBIL?
middle

Where would O=C(O)c1ccccc1Nc1ccccc1 [FENAMIC ACID] land among the classes by reported DBIL?
low

Where would CCCCC1C(=O)N(c2ccccc2)N(c2ccccc2)C1=O [PHENYLBUTAZONE] land among the classes by reported DBIL?
middle

Where would NS(=O)(=O)c1cc(C(=O)O)c(NCc2ccco2)cc1Cl [FUROSEMIDE] land among the classes by reported DBIL?
middle

Where would CN(C/C=C/C#CC(C)(C)C)Cc1cccc2ccccc12 [TERBINAFINE] land among the classes by reported DBIL?
high

Where would O=c1ccc2ccccc2o1 [COUMARIN] land among the classes by reported DBIL?
high

Where would `Nc1ccc(Cc2ccc(N)cc2)cc1` land among the classes by reported DBIL?
high
